# EXPERIMENT_SUMMARY: qHTS Assay for Lipid Storage Modulators in Drosophila S3 Cells;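 for cell number change: cells counted by Cell Tracker Red CMTPX staining in the red channel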
# CONDITION_NOTES: BODIPY lipid droplet fluorescence, 18-24 h, cells fed with added oleic acid; measured here: cell count max response
# Text: NIH Molecular Libraries Probe Production Centers Network [MLPCN] NIH Chemical Genomics Center [NCGC] […] Triacsin C (Sigma-Aldrich T-4540), an inhibitor of long-chain fatty acyl CoA synthetase that blocks synthesis of triglycerides, was used as a positive control for lipid under-storage. […] Fluorescence was detected by excitation of the fluorophores with a 488-nm laser on an Acumen Explorer (TTP Lab Tech). […] Cells were detected using channel 3 (575-640 nm) with 5-um width and 100-um depth filters. […]
In all, about 320,000 compounds went through this assay and about 2,100 (0.66%) were called active. Not shown: some 53% with an inconclusive outcome. What follows is part of a selection rich in actives, with near analogues and random picks from the rest.
Please respond with reported cell number change for every item in the list.
Give your result in % as a bare value.

**Q:** Could you tell me which cell number change is on file for CCC(C)N1CCNCC1 (centres undefined) ?
**A:** 2.58

**Q:** Could you tell me which cell number change is on file for CCc1nc(C)cn1S(=O)(=O)c1ccc([N+](=O)[O-])cc1 ?
**A:** 7.81

**Q:** Could you tell me which cell number change is on file for Cc1nn(C(C)C(=O)O)c(C)c1[N+](=O)[O-] (centres undefined) ?
**A:** 3.58

**Q:** Could you tell me which cell number change is on file for COCCNCC1C(Oc2ccc(Cl)cc2)C(=O)N1c1ccccc1C (centres undefined) ?
**A:** 19.6

**Q:** Could you tell me which cell number change is on file for NC(=O)c1ccc(NC(=O)COC(=O)/C=C/c2ccc3c(c2)OCO3)cc1 ?
**A:** 9.72

**Q:** Could you tell me which cell number change is on file for COC(=O)c1cc(CNC(=O)c2sccc2-c2ccccc2)ccc1OC ?
**A:** -10.7

**Q:** Could you tell me which cell number change is on file for CC(=O)Nc1ccc(NC(=O)COC(=O)/C=C/c2ccc3c(c2)OCO3)cc1 ?
**A:** -1.06

**Q:** Could you tell me which cell number change is on file for Cc1nnc(SCc2ccon2)n1-c1ccccc1 ?
**A:** -2.33

**Q:** Could you tell me which cell number change is on file for CCCN(CC(=O)Nc1ccccc1OC)C(=O)Cc1ccccc1F ?
**A:** 20.6

**Q:** Could you tell me which cell number change is on file for N#CC[C@H](Cc1ccccc1)N1CC[C@@H](NC(=O)OCc2ccccc2)CCC1=O ?
**A:** 8.98

**Q:** Could you tell me which cell number change is on file for C=CCSc1nc(O)c(CC)c(=O)n1C(C)CC (centres undefined) ?
**A:** -4.8

**Q:** Could you tell me which cell number change is on file for COc1ccccc1CNC(=O)c1cccs1 ?
**A:** -14

**Q:** Could you tell me which cell number change is on file for COc1cc2c(cc1OC)C(COc1ccc(F)cc1)N(C(C)=O)CC2 (centres undefined) ?
**A:** -4.23

**Q:** Could you tell me which cell number change is on file for Cc1ccc(NC(=O)CC(C)CC2=NS(=O)(=O)c3ccccc3N2)cc1 (centres undefined) ?
**A:** 4.79

* * *

Please respond with reported cell number change for every item in the list.
# EXPERIMENT_SUMMARY: qHTS Assay for Lipid Storage Modulators in Drosophila S3 Cells;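 for cell number change: cells counted by Cell Tracker Red CMTPX staining in the red channel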
# CONDITION_NOTES: BODIPY lipid droplet fluorescence, 18-24 h, cells fed with added oleic acid; measured here: cell count max response
In all, about 320,000 compounds went through this assay and about 2,100 (0.66%) were called active. Another 53% or so got no clear call; they are omitted. The sample holds actives, similar compounds and a random draw of the others, so the mix is not that of the screen.

**Q:** Could you tell me which cell number change is on file for CC1(C)CC(=O)N(c2ccccc2)C1(C)O (stereo not given) ?
**A:** 6.8%

**Q:** Could you tell me which cell number change is on file for O=S(=O)(NNC(=S)Nc1ccc(S(=O)(=O)Nc2ncccn2)cc1)c1ccc(Br)cc1 ?
**A:** 4.32%

**Q:** Could you tell me which cell number change is on file for O=C1c2ccccc2C(=O)N1c1cccnc1 ?
**A:** -5.37%

**Q:** Could you tell me which cell number change is on file for O=C1c2cccc3cccc(c23)C(=O)N1c1cccnc1 ?
**A:** -10.8%

**Q:** Could you tell me which cell number change is on file for CCOC(=O)C(NC(=O)NC1CCCCC1)(c1ccccc1)C(F)(F)F (stereo not given) ?
**A:** -7.07%

* * *

# EXPERIMENT_SUMMARY: qHTS Assay for Lipid Storage Modulators in Drosophila S3 Cells
# CONDITION_NOTES: BODIPY lipid droplet fluorescence, 18-24 h, cells fed with added oleic acid; series mostly up to 46.1 µM
The campaign covered roughly 320,000 compounds. About 2,100 (0.66%) were called active. Another 53% or so got no clear call; they are omitted. The call rests on the fitted dose curve; in most records, active means well fitted inhibition curve with a large enough effect in the signal ratio, with a control signal flat (not every such curve was filed as active); inconclusive means small, poorly fitted or top-dose-only effect, or effect the other way, or a change in a side signal; inactive means flat fitted curve, though single readings scatter; the % refers to the signal ratio. The entries come from a sample that favours actives as a whole.
Answer with one of the outcomes yes for active, no for inactive

**Q:** Assay result, entry COc1ccc(/C=C(\NC(=O)c2ccc(OC)cc2)C(=O)Nc2ccc(C(=O)O)cc2)cc1 — outcome?
**A:** no

**Q:** Assay result, entry O=C(Nc1ccccc1F)C(=O)c1cn(CC(=O)N2CCCCC2)c2ccccc12 — outcome?
**A:** no

**Q:** Assay result, entry COC(=O)[C@@]12CCCCN1[C@H](c1ccc(-c3ccc(OC)cc3)cc1)[C@@H]1C(=O)N(C)C(=O)[C@@H]12 — outcome?
**A:** no

**Q:** Assay result, entry COc1ccc(CN(C)S(=O)(=O)c2nnc(NC(=O)c3cccc(F)c3)s2)cc1 — outcome?
**A:** no

**Q:** Assay result, entry COc1ccc(C(=O)NCC2(c3ccccc3)CCOCC2)cc1 — outcome?
**A:** no

**Q:** Assay result, entry Cc1ccc(C2=NNC(=O)C(P(=O)(c3ccccc3)c3ccccc3)C2)cc1 (stereo not drawn) — outcome?
**A:** no

**Q:** Assay result, entry Cc1nc(NC(=O)COC(=O)CCc2nc3ccccc3s2)c(Cl)cc1Cl — outcome?
**A:** no

**Q:** Assay result, entry COc1cccc(C(=O)Nc2nnc(S(=O)(=O)N(C)Cc3ccc(F)cc3)s2)c1 — outcome?
**A:** yes

**Q:** Assay result, entry CC(/C=N/NC(=O)c1cccnc1)=C\c1ccco1 — outcome?
**A:** no

**Q:** Assay result, entry O=C(NCCc1c[nH]c2ccccc12)C(=O)NCC(c1ccco1)N1CCN(c2ccccc2)CC1 (stereo not drawn) — outcome?
**A:** no

**Q:** Assay result, entry CCCCCCSc1ccc([C@@H]2[C@H]3C(=O)N(CC)C(=O)[C@H]3[C@]3(C(=O)OC)CCCN23)cc1 — outcome?
**A:** yes

**Q:** Assay result, entry COc1ccccc1C(=O)COC(=O)c1ccc(Cl)nc1 — outcome?
**A:** no

**Q:** Assay result, entry Cc1cc(C)cc(C(=O)N2CCN=C2SCc2ccc([N+](=O)[O-])cc2)c1 — outcome?
**A:** yes

**Q:** Assay result, entry CCCCCCSc1ccc([C@@H]2[C@H]3C(=O)N(C)C(=O)[C@H]3[C@]3(C(=O)OC)CCCCN23)cc1 — outcome?
**A:** yes

**Q:** Assay result, entry CCC(=O)Oc1ccc2c(=O)c(-c3ccc4ccccc4n3)c(CC)oc2c1C — outcome?
**A:** no

**Q:** Assay result, entry Cc1cccc(C(=O)Nc2nnc(S(=O)(=O)N3CCOCC3)s2)c1 — outcome?
**A:** no

**Q:** Assay result, entry O=C(c1ccccc1)N1CCN=C1SCc1ccc([N+](=O)[O-])cc1 — outcome?
**A:** no

**Q:** Assay result, entry O=C1/C(=C/c2cccs2)Cc2ccccc21 — outcome?
**A:** no

* * *

# EXPERIMENT_SUMMARY: qHTS Assay for Lipid Storage Modulators in Drosophila S3 Cells;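 for cell number change: cells counted by Cell Tracker Red CMTPX staining in the red channel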
# CONDITION_NOTES: BODIPY lipid droplet fluorescence, 18-24 h, cells fed with added oleic acid; measured here: cell count max response
Among all 320,000 compounds or so, about 2,100 (0.66%) were called active. Not shown: some 53% with an inconclusive outcome. The sample holds actives, similar compounds and a random draw of the others, so the mix is not that of the screen.
EXPERIMENTAL_ENDPOINT: cell number change (%)
Give your result in % as a bare value.

**Q:** Could you tell me which cell number change is on file for CC(C)CC(=O)/C=C/n1c(=S)oc2ccccc21 ?
**A:** -3.17

**Q:** Could you tell me which cell number change is on file for O=C(O)CCn1c(=S)oc2ccccc21 ?
**A:** 2.74

**Q:** Could you tell me which cell number change is on file for Cc1ccc(-c2nc(CN3CCCCC3)cc(CN3CCCCC3)c2O)cc1 ?
**A:** 4.96

**Q:** Could you tell me which cell number change is on file for COC(=O)c1cn(NC(=O)/C=C/c2ccc(OC)c(OC)c2)c(=O)c2ccccc12 ?
**A:** -14.9

**Q:** Could you tell me which cell number change is on file for CC(C)(CNS(=O)(=O)c1ccc(F)cc1)CNS(=O)(=O)c1ccc(F)cc1 ?
**A:** 6.92

**Q:** Could you tell me which cell number change is on file for Cc1nc2cc(NC(=O)Nc3cccc4ccccc34)ccc2n1C ?
**A:** 19.9

**Q:** Could you tell me which cell number change is on file for CC(C)(C)c1nc(CN2CCCCC2)cc(CN2CCCCC2)c1O ?
**A:** -1.12

**Q:** Could you tell me which cell number change is on file for Cc1ccc(CN2CCN(Cc3c[nH]c4ccccc34)CC2CCO)o1 (centres undefined) ?
**A:** 12.4

**Q:** Could you tell me which cell number change is on file for CC(=O)c1c(C)[nH]c(C(=O)Nc2ccc3c(c2)OCCO3)c1C ?
**A:** -13.3

**Q:** Could you tell me which cell number change is on file for Cc1cccc(N2CCN(C(=O)C(Cc3ccccc3)NC(N)=O)CC2)c1C (centres undefined) ?
**A:** -3.7

**Q:** Could you tell me which cell number change is on file for CN(C)c1cccc(C(=O)NNC(=O)NC2CCCCC2)c1 ?
**A:** -5.42

**Q:** Could you tell me which cell number change is on file for CC(C)(Cc1nc2ccccc2[nH]1)C(=O)O ?
**A:** -19.5

**Q:** Could you tell me which cell number change is on file for CCOC(=O)N1CCN(C(=O)C2CCN(c3nnc(-n4cccc4)s3)CC2)CC1 ?
**A:** 29.4

**Q:** Could you tell me which cell number change is on file for CCOC(=O)Cn1nc(C)c(NC(=O)CCc2ccccc2)c1C ?
**A:** 12.6
